Biological target: cysteines in MDA-MB-231 and Ramos cells (Homo sapiens, UniProt P50570)
Sequence (P50570 whole entry, the tested form may be a part): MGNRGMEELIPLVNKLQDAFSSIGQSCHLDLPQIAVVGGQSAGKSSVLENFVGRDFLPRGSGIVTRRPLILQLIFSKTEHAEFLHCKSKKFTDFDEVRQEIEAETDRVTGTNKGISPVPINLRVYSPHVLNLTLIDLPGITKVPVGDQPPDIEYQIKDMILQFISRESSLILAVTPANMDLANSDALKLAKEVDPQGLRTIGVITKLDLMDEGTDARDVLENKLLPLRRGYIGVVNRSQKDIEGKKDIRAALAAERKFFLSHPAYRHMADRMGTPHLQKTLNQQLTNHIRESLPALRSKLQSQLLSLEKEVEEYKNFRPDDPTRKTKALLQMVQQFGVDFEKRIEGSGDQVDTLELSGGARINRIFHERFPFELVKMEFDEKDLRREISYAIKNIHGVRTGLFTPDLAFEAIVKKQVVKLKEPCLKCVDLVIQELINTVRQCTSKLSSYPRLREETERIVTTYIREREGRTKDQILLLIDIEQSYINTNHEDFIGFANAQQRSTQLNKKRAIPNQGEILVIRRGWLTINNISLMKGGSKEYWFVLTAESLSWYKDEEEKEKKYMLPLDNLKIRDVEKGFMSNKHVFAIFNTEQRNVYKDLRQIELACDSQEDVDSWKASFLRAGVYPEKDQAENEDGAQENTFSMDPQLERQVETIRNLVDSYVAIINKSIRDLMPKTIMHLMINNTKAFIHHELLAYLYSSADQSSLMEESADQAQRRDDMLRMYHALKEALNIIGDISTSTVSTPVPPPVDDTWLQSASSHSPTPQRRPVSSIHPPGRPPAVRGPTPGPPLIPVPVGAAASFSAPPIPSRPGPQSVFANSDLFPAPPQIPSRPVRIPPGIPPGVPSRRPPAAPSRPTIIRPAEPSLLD
Test: Competitive isoTOP-ABPP in situ (fragment-treated cells)
Type: cell-based
Conditions: 200 μM, insitu, 231
isoTOP-ABPP ratio P50570_C27 values, listed per item

In the examples that follow, each entry is paired with its recorded isoTOP-ABPP ratio P50570_C27.
[
  {
    "compound": "O=C(CCl)N1CCN(S(=O)(=O)c2ccccc2F)CC1 [compound 10]",
    "isoTOP-ABPP ratio P50570_C27": 3.1
  },
  {
    "compound": "CC1CCc2ccccc2N1C(=O)CCl (centres unmarked) [compound 45]",
    "isoTOP-ABPP ratio P50570_C27": 15.4
  },
  {
    "compound": "Cc1ccc(C=C(C#N)C(=O)NCCN2CCOCC2)cc1 [compound 41]",
    "isoTOP-ABPP ratio P50570_C27": 0.5
  },
  {
    "compound": "O=C(CCl)NC12CC3CC(CC(C3)C1)C2 [compound 21]",
    "isoTOP-ABPP ratio P50570_C27": 0.8
  },
  {
    "compound": "O=C(CCl)NC(=O)NC12CC3CC(CC(C3)C1)C2 [compound 12]",
    "isoTOP-ABPP ratio P50570_C27": 0.7
  },
  {
    "compound": "CC(C)CCOCCNC(=O)CCl [compound 27]",
    "isoTOP-ABPP ratio P50570_C27": 0.5
  }
]

Bench note: what isoTOP-ABPP ratio P50570_C27 did O=C(CCl)Nc1cccc2ncccc12 [compound 51] show? 1.1

Bench note: what isoTOP-ABPP ratio P50570_C27 did C=CC(=O)Nc1cc(F)c(N2CCN(C(=O)OC(C)(C)C)CC2)c(F)c1 [compound 38] show? 0.9
